Tested on: Mus musculus
method.notes: Induction of diarrheal activity in conscious mouse at 0.1 to 3 mg/kg, iv administered for 30 mins relative to PGE2
Assay type: organism-based
Design: dose 0.1-3 mg/kg, route intravenous
conditions.used: in vivo, 0.5 h
endpoint.label: fold change (FC)

P. CCCCC(C)(C)[C@H](O)/C=C/[C@H]1[C@H](O)CC(=O)[C@@H]1C/C=C\CCCC(=O)NC(C)=O
Q. CCCCC[C@H](O)/C=C/[C@@H]1[C@@H](C/C=C\CCCC(=O)O)[C@@H](O)C[C@H]1O
R. CCCCC[C@H](O)/C=C/[C@H]1[C@H](O)CC(=O)[C@@H]1C/C=C\CCCC(=O)NC(=O)NCC
-- ask Kindly order the items shown according to fold change (FC), from the highest value down. Labels, ranked as asked.
-- reply P, R, Q

---

Tested on: Mus musculus
method.notes: Induction of diarrheal activity in conscious mouse at 0.1 to 3 mg/kg, iv administered for 30 mins relative to PGE2
Assay type: organism-based
Design: dose 0.1-3 mg/kg, route intravenous
conditions.used: in vivo, 0.5 h
endpoint.label: fold change (FC)

A selection of reference data follows.
CCCCC[C@H](O)/C=C/[C@H]1[C@H](O)CC(=O)[C@@H]1C/C=C\CCCC(N)=O	10
CCCCC(C)(C)[C@H](O)/C=C/[C@H]1[C@H](O)CC(=O)[C@@H]1C/C=C\CCCc1nnn[nH]1	2550
CCCCC[C@H](O)/C=C/[C@@H]1[C@@H](C/C=C\CCCC(=O)NC(C)=O)[C@@H](O)C[C@H]1O	78

I. CCCCC(C)(C)[C@H](O)/C=C/[C@H]1[C@H](O)CC(=O)[C@@H]1C/C=C\CCCC(=O)O
II. CCCCC[C@H](O)/C=C/[C@H]1[C@H](O)CC(=O)[C@@H]1C/C=C\CCCC(=O)NC(=O)c1ccccc1
III. CCCCC[C@H](O)/C=C/[C@@H]1[C@@H](C/C=C\CCCC(=O)NS(C)(=O)=O)[C@@H](O)C[C@H]1O
-- ask Order the items by recorded fold change (FC); the first position goes to the largest value. Your task in answering is to list the labels in the requested order.
-- reply I, II, III
(I: 5300, II: 83, III: 25)

---

Test system: Rattus norvegicus
method.notes: Antisecretory activity in rat assessed as inhibition of pentagastrin-stimulated gastric acid secretion at 10 ug/kg, iv relative to PGE2
Format: functional, Stomach
endpoint.label: fold change (FC)
// no unit string in output, number only

Check out these entries, answers already filled in.
CCCCC(C)(C)[C@H](O)/C=C/[C@H]1[C@H](O)CC(=O)[C@@H]1C/C=C\CCCC(=O)NS(C)(=O)=O	220
CCCCC(C)(C)[C@H](O)/C=C/[C@H]1[C@H](O)CC(=O)[C@@H]1C/C=C\CCCC(=O)NC(C)=O	330
CCCCC(C)(C)[C@H](O)/C=C/[C@H]1[C@H](O)CC(=O)[C@@H]1C/C=C\CCCc1nnn[nH]1	130

-- ask Report fold change (FC) for CCCCC(C)(C)[C@H](O)/C=C/[C@H]1[C@H](O)CC(=O)[C@@H]1C/C=C\CCCC(=O)O tested on Rattus norvegicus.
-- reply 360

---

System: Mus musculus
method.notes: Induction of diarrheal activity in conscious mouse at 0.1 to 3 mg/kg, iv administered for 30 mins relative to PGE2
Format: organism-based
Design: dose 0.1-3 mg/kg, route intravenous
conditions.used: in vivo, 0.5 h
endpoint.label: fold change (FC)

CCCCC[C@H](O)/C=C/[C@@H]1[C@@H](C/C=C\CCCC(=O)NC(=O)c2ccccc2)[C@@H](O)C[C@H]1O	< 5
CCCCC[C@H](O)/C=C/[C@@H]1[C@@H](C/C=C\CCCC(=O)NC(=O)NCC)[C@@H](O)C[C@H]1O	< 10

Could you now look at the following molecule, please?
-- ask Which fold change (FC) value belongs to CCCCC[C@H](O)/C=C/[C@H]1[C@H](O)CC(=O)[C@@H]1C/C=C\CCNC(=O)NC(C)=O ?
-- reply < 5
